experimental.target: Acetylcholinesterase (Homo sapiens, UniProt P22303)
Sequence (P22303 whole entry): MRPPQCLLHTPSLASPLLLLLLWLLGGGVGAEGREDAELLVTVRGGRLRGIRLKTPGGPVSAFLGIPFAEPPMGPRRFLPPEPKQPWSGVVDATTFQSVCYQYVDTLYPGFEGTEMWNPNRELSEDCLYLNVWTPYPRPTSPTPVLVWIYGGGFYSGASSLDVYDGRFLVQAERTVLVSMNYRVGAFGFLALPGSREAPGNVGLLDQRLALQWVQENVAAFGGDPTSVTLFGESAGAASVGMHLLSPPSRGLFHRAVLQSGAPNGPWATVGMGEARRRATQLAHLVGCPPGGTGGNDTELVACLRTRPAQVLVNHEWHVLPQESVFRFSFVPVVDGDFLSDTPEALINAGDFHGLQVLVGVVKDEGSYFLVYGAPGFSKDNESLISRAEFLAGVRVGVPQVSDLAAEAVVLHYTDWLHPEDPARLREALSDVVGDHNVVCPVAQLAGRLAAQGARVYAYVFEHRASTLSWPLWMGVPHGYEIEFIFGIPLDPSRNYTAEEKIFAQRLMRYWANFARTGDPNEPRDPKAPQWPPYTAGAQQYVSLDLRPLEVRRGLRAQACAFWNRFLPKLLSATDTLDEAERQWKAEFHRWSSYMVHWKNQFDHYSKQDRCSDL
procedure.text: Inhibition of AChE in human erythrocytes using acetylthiocholine iodide as substrate preincubated with enzyme for 20 mins followed by substrate addition by Ellman's method
readout.name: IC50 (µM)
Use µM as the unit, but write only the number.

Check out these entries, answers already filled in.
• COc1cc2c(cc1OC)C(Cc1ccc(OCCCCCCN3CCN(c4ccccc4)CC3)cc1)NCC2 (stereo not given) = 16.3
• COc1cc2c(cc1OC)C(Cc1ccc(OCCCCCCN3CCCC3C)cc1)NCC2 (stereo not given) = 4.5
• COc1cc2c(cc1OC)C(Cc1ccc(OCCCCCCN3CCC(O)(Cc4ccccc4)CC3)cc1)NCC2 (stereo not given) = 39.6
• COc1cc2c(cc1OC)C(Cc1ccc(OCCCCCCN3CCC(c4ccccc4)CC3)cc1)NCC2 (stereo not given) = 9.33
• CCN(CC)CCCCCCOc1ccc(CC2NCCc3cc(OC)c(OC)cc32)cc1 (stereo not given) = 4.99
• COc1cc2c(cc1OC)C(Cc1ccc(OCCCCCCN3CCN(Cc4ccccc4)CC3)cc1)NCC2 (stereo not given) = 5.59
• COc1cc2c(cc1OC)C(Cc1ccc(OCCCCCCN3CCCCC3C)cc1)NCC2 (stereo not given) = 2.2
• COc1cc2c(cc1OC)C(Cc1ccc(OCCCCCCN3CCOCC3)cc1)NCC2 (stereo not given) = 35.5
• COc1cc2c(cc1OC)C(Cc1ccc(OCCCCCCN(C)C)cc1)NCC2 (stereo not given) = 7.13
• CCCN(CCC)CCCCCCOc1ccc(CC2NCCc3cc(OC)c(OC)cc32)cc1 (stereo not given) = 3.46

Provide measured IC50 value, entry: COc1cc2c(cc1OC)C(Cc1ccc(OCCCCCCN3CCC(O)CC3)cc1)NCC2 (stereo not given)
9.59

Give me measured IC50, please, for this compound: CCCCN(CCCC)CCCCCCOc1ccc(CC2NCCc3cc(OC)c(OC)cc32)cc1 (stereo not given)
3.85

Give reported IC50 value for COc1cc2c(cc1OC)C(Cc1ccc(OCCCCCCN3CCCC3)cc1)NCC2 (stereo not given)
2.98

Return IC50 (reported value) for this compound: COc1cc2c(cc1OC)C(Cc1ccc(OCCCCCCN3CCCCC3)cc1)NCC2 (stereo not given)
2.14

* * *

experimental.target: Cholinesterase (Equus caballus, UniProt P81908)
Sequence (P81908 whole entry): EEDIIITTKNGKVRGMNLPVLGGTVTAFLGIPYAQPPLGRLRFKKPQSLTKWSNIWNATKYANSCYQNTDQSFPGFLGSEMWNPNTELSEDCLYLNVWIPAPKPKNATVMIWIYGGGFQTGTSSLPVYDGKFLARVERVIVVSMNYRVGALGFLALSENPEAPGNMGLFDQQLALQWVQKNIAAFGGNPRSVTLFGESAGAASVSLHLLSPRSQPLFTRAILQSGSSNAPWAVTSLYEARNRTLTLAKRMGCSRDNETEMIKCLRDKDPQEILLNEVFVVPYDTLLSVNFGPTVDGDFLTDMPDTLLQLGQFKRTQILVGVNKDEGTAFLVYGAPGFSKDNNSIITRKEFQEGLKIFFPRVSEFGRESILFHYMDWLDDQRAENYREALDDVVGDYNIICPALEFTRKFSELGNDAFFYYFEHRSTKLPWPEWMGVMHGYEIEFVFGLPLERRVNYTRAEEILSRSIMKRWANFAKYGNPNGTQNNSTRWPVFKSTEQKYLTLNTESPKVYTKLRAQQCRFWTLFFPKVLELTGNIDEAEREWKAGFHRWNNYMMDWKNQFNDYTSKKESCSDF
procedure.text: Inhibition of BuChE in equine serum using S-butyrylthiocholine iodide as substrate preincubated with enzyme for 6 mins followed by substrate addition by Ellman's method
List of pIC50 values.
When answering, recall that pIC50 equals minus log10 of the concentration in mol/L, and write that number alone.

Example compounds with recorded pIC50:
• COc1cc2c(cc1OC)C(Cc1ccc(OCCCCCCN3CCCC3C)cc1)NCC2 (stereo not given) = 5.47
• COc1cc2c(cc1OC)C(Cc1ccc(OCCCCCCN3CCC(O)CC3)cc1)NCC2 (stereo not given) = 4.85

Hello, please tell me recorded pIC50 for this one: COc1cc2c(cc1OC)C(Cc1ccc(OCCCCCCN3CCC(c4ccccc4)CC3)cc1)NCC2 (stereo not given)
5.10

For the compound COc1cc2c(cc1OC)C(Cc1ccc(OCCCCCCN3CCN(c4ccccc4)CC3)cc1)NCC2 (stereo not given) , report pIC50.
5.06

Please look at this compound and report its pIC50: CCN(CC)CCCOc1ccc(CC2NCCc3cc(OC)c(OC)cc32)cc1 (stereo not given)
4.68

Supply pIC50 value. Item: COc1cc2c(cc1OC)C(Cc1ccc(OCCCCCCN(C)C)cc1)NCC2 (stereo not given)
5.06

Identify measured pIC50 corresponding to COc1cc2c(cc1OC)C(Cc1ccc(OCCCCCCN3CCOCC3)cc1)NCC2 (stereo not given)
4.89

Answer with the recorded pIC50 of COc1cc2c(cc1OC)C(Cc1ccc(OCCCCCCN3CCCCC3)cc1)NCC2 (stereo not given) only.
5.60

Give recorded pIC50. COc1cc2c(cc1OC)C(Cc1ccc(O)cc1)NCC2 (stereo not given)
4.40

Reference for the values: ChEMBL document CHEMBL3259766
